Each entry below carries its reported Activity.
- Experimental system: Pro-adrenomedullin (Homo sapiens)
- Sequence (whole entry): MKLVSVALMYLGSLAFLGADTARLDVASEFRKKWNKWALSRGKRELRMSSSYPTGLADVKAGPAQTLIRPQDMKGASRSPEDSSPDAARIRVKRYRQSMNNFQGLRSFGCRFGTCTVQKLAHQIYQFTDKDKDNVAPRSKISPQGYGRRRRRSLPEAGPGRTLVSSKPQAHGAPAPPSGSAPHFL
- Measurement protocol: Binding affinity to human synthetic proadrenomedullin N-terminal 20 peptide assessed as reduction in absorbance at 1 uM after 1 hr by monoclonal antibody method
- Set-up: scale not given: the % may be the effect or the level left
Enter your answer as a number in %; do not include the unit.

{"Compound": "CC1c2ccccc2Cn2cc3c(c21)C(=O)c1cccc(OP(=O)(O)OCc2ccccc2)c1C3=O (stereo not drawn)", "Property label": "Activity", "Output unit": "%", "Reported": 107}
{"Compound": "S=C(Nc1ccc2c(c1)Cc1ccccc1-2)Nc1ccc2c(c1)Cc1ccccc1-2", "Property label": "Activity", "Output unit": "%", "Reported": 80.8}
{"Compound": "Nc1nc(-c2ccc3ccccc3c2)cc(-c2cc(-c3ccc4ccccc4c3)nc(N)n2)n1", "Property label": "Activity", "Output unit": "%", "Reported": 104}
{"Compound": "C(CCc1nnc2c(n1)CCCC2)Cc1nnc2c(n1)CCCC2", "Property label": "Activity", "Output unit": "%", "Reported": 96.5}
{"Compound": "CN1C(=O)C2N=C(C3CC(=O)CC(c4nc5c(=O)n(C)c(=O)n(C)c5[nH]4)N3)NC2N(C)C1=O (stereo not drawn)", "Property label": "Activity", "Output unit": "%", "Reported": 85.1}

get_value(item= FC(F)(F)c1nc2ccc(SSc3ccc4nc(C(F)(F)F)[nH]c4c3)cc2[nH]1 , readout=Activity) returns 109

get_value(item= Nc1ncnc2nc(-c3ccc(C[PH](c4ccccc4)(c4ccccc4)c4ccccc4)cc3)[nH]c12 , readout=Activity) returns 76

get_value(item= S=C1NCN2CCN(CC2)CNC(=S)C(=S)NCN2CCN(CC2)CNC1=S , readout=Activity) returns 88

get_value(item= CC(C)CCC[C@@H](C)[C@H]1CC[C@H]2[C@@H]3CCC4CC(N)CC[C@]4(C)[C@H]3CC[C@]12C (stereo partly drawn) , readout=Activity) returns 106

get_value(item= Cc1ccc(-c2nc(-c3nccc4ccccc34)oc2-c2ccccc2)cc1 , readout=Activity) returns 72.1

get_value(item= Clc1ccc2c(N3CCC(CCC4CCN(c5ncnc6cc(Cl)ccc56)CC4)CC3)ncnc2c1 , readout=Activity) returns 88

get_value(item= Cn1c(=O)c2c(ncn2CN2CCN(Cn3cnc4c3c(=O)n(C)c(=O)n4C)CC2)n(C)c1=O , readout=Activity) returns 76.4

get_value(item= C[C@]12CC[C@@H]3c4ccc(O)cc4CC[C@H]3[C@@H]1CC[C@@H]2OC(=O)CCc1ccccc1 , readout=Activity) returns 98.4

----------
Each entry below carries its reported Activity.
- Experimental system: Pro-adrenomedullin (Homo sapiens)
- Measurement protocol: Binding affinity to human synthetic proadrenomedullin N-terminal 20 peptide assessed as reduction in absorbance at 1 uM after 1 hr by monoclonal antibody method
- Design: scale not given: the % may be the effect or the level left
Enter your answer as a number in %; do not include the unit.

{"Molecule": "O=[N+]([O-])c1ccc2c(c1)N=C1OC(c3c[nH]c4ccc(COc5ccccc5)cc34)C(O)=C1N2 (centres undefined)", "Output unit": "%", "Activity": 92.7}

get_value(item= Nc1nc(-c2ccccc2)c(-c2ccccc2)c(-c2nc(N)nc(-c3ccccc3)c2-c2ccccc2)n1 , readout=Activity) returns 109

get_value(item= c1cc(NNc2cccc(-c3nnn[nH]3)c2)cc(-c2nnn[nH]2)c1 , readout=Activity) returns 95.3

get_value(item= c1ccc2c(CN3CCN(Cc4c[nH]c5ccccc45)CC3)c[nH]c2c1 , readout=Activity) returns 89.7

get_value(item= Nc1nc(SCc2ccccc2)c2ncn(Cc3ccccc3)c2n1 , readout=Activity) returns 91.4

get_value(item= OC[C@H]1O[C@@H](n2cnc3c(SCc4ccccc4)ncnc32)[C@H](O)[C@@H]1O , readout=Activity) returns 109

----------
- Experimental system: UniProt P35318
- Sequence (whole entry): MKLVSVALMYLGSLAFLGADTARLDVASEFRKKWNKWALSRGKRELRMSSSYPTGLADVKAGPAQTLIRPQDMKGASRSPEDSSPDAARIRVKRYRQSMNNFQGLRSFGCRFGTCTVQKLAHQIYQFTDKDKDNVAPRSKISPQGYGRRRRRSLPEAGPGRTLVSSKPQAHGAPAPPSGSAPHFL
- Measurement protocol: Binding affinity to human synthetic proadrenomedullin N-terminal 20 peptide assessed as reduction in absorbance at 1 uM after 1 hr by monoclonal antibody method
- Parameters: scale not given: the % may be the effect or the level left
Each entry below carries its reported Activity.
Enter your answer as a number in %; do not include the unit.

Field: example entries. Status: answers known.
{"Molecule": "C[C@]12CC[C@@H]3c4ccc(O)cc4CC[C@H]3[C@@H]1CC[C@@H]2OC(=O)CCC1CCCC1", "Output unit": "%", "Activity": 91.2}
{"Molecule": "Cn1cnc([N+](=O)[O-])c1Sc1nc(N)nc2c1ncn2[C@H]1C[C@H](O)[C@@H](CO)O1", "Output unit": "%", "Activity": 86.3}
{"Molecule": "Cc1ccc2ccccc2c1CSc1nc(N)nc2c1ncn2CC(C)C", "Output unit": "%", "Activity": 85.5}

get_value(item= CC1(C)CC(Nc2ccc(Nc3ccccc3)cc2)CC(C)(C)N1 , readout=Activity) returns 96.2

get_value(item= O=C(O)c1c(-c2nccc3ccccc23)[nH]c(-c2ccccc2)c1S(=O)(=O)O , readout=Activity) returns 96.7

get_value(item= c1ccc([PH](CC[PH](c2ccccc2)(c2ccccc2)c2ccccc2)(c2ccccc2)c2ccccc2)cc1 , readout=Activity) returns 84.6

----------
Each entry below carries its reported Activity.
- Experimental system: Pro-adrenomedullin (Homo sapiens) (UniProt P35318)
- Measurement protocol: Binding affinity to human synthetic proadrenomedullin N-terminal 20 peptide assessed as reduction in absorbance at 1 uM after 1 hr by monoclonal antibody method
- Design: scale not given: the % may be the effect or the level left
A complete answer gives the number and then names the unit.

Field: example entries. Status: answers known.
{"Compound": "O=C1C2C3C=CC(C2C(=O)N1CN1CCSCC1)C1C2C(=O)N(CN4CCSCC4)C(=O)C2C31 (stereo not drawn)", "Activity": "92.5%"}
{"Compound": "O=S(=O)(O)c1ccc2cc(/N=N/c3cc(S(=O)(=O)O)c4cccnc4c3O)ccc2c1", "Activity": "86.4%"}

With those in mind, consider the next compound.
Case O=c1[nH]c2ccccc2n1CCCN1CCC(n2c(=O)[nH]c3cc(Cl)ccc32)CC1 , Pro-adrenomedullin (Homo sapiens) (UniProt P35318), Activity recorded as 80.1%

----------
- Experimental system: Pro-adrenomedullin (Homo sapiens) (UniProt P35318)
- Sequence (whole entry): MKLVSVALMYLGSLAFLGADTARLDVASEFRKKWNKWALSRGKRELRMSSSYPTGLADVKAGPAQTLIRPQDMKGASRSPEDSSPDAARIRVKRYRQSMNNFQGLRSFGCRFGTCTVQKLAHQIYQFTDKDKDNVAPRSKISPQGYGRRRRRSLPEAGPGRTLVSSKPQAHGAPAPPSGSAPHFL
- Measurement protocol: Binding affinity to human synthetic proadrenomedullin N-terminal 20 peptide assessed as reduction in absorbance at 1 uM after 1 hr by monoclonal antibody method
- Design: scale not given: the % may be the effect or the level left
Property label: Activity (%)
Enter your answer as a number in %; do not include the unit.

Field: example entries. Status: answers known.
{"Compound": "O=C1C(Cl)=C(Sc2nnc3c4ccccc4c4ccccc4c3n2)C(=O)c2ccccc21", "Experimental system": "Pro-adrenomedullin (Homo sapiens) (UniProt P35318)", "Activity / %": 88.4}
{"Compound": "O=C(O)CNC(=O)C1NC(C(F)(F)F)(C(F)(F)F)OC1(C(F)(F)F)C(F)(F)F (centres undefined)", "Experimental system": "Pro-adrenomedullin (Homo sapiens) (UniProt P35318)", "Activity / %": 92.1}
{"Compound": "O=C1c2ccccc2C(=O)c2c(NC3CCCCC3)ccc(Nc3ccc(S(=O)(=O)O)cc3)c21", "Experimental system": "Pro-adrenomedullin (Homo sapiens) (UniProt P35318)", "Activity / %": 101}

With those in mind, consider the next compound.
get_value(item= O=S(=O)(O)c1ccc(-c2nnc(-c3ccccn3)nc2-c2ccc(S(=O)(=O)O)o2)o1 , readout=Activity) returns 81.9
